Data credit: patent US6596687B1

The following molecules are shown together with reported IC50 values.
# STUDY_SYSTEM: VLA4 (Homo sapiens, UniProt P05556+P13612)
# Construct: endogenous in cells; host or cells: Ramos cells
# Sequence (P13612 34-1032): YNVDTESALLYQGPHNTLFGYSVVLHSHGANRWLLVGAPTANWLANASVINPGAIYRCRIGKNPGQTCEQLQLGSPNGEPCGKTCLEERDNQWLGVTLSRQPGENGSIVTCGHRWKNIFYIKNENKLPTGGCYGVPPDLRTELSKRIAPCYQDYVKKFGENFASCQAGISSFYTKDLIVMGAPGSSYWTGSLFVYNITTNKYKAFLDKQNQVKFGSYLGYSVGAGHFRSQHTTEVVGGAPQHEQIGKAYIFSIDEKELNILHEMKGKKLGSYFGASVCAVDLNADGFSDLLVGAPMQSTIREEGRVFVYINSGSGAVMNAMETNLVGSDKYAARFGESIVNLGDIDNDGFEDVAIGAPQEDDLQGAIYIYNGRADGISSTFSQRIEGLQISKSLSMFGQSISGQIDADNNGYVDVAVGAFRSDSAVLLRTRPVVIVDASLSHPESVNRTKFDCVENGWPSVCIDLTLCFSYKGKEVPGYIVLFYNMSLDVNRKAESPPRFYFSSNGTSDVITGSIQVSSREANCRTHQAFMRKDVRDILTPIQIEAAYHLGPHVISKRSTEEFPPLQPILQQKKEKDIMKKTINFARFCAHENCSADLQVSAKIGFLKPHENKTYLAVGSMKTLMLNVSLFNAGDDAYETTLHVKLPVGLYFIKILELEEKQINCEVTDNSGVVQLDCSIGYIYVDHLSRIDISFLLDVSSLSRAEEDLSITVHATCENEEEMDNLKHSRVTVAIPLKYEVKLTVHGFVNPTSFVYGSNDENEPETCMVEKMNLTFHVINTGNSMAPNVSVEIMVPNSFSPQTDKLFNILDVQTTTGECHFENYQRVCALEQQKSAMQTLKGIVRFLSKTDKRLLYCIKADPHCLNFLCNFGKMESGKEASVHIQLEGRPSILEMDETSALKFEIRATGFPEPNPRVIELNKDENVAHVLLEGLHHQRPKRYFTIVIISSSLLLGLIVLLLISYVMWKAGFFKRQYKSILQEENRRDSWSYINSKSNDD
# Sequence (P05556 21-798): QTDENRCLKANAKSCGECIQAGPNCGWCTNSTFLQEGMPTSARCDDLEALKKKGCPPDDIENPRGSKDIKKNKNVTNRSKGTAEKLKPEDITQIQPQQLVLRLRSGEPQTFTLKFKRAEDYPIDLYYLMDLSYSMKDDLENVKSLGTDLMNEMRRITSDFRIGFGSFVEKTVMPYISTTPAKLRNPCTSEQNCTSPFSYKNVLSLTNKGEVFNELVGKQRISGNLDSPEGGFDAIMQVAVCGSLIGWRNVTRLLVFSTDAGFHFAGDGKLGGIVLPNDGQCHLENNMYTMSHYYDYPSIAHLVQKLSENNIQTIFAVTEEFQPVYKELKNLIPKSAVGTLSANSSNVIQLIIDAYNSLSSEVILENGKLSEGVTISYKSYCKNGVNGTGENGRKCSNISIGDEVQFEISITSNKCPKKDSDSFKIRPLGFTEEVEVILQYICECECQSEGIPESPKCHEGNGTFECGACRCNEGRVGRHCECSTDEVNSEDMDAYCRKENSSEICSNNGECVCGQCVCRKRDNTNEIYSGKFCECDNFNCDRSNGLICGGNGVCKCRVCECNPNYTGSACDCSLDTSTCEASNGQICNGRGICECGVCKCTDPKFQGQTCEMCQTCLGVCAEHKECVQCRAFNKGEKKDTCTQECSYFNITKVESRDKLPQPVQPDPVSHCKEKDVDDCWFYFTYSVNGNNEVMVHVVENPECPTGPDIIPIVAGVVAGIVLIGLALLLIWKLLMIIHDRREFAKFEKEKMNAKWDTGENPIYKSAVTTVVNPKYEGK
# PROTOCOL_DETAILS: Inhibition of VLA4-dependent adhesion of Ramos cells to BSA-CS1
# Type: cell-based
# TEST_SETTINGS: Ramos cells, BSA-CS1 coated wells, 2 mM MnCl2, 30 minutes at room temperature; read-out: IC50
Peptide text beside a SMILES is read from it. * marks the point of attachment. Bz = O=C(c1ccccc1)*

Recorded results for 2 molecules are shown here.
Please look up its IC50: CC(C)C[C@H](NC(=O)Cc1ccccc1)C(=O)N[C@@H](CC(=O)O)C(=O)N[C@H](C(=O)N1CCC[C@H]1C(=O)O)C(C)C
0.05 to 10 µM

Okay, and CC(C)C[C@H](NC(=O)C1(N)CCc2ccccc2C1)C(=O)N[C@@H](CC(=O)O)C(=O)N[C@H](C(=O)O)C(C)C (stereo partly drawn) [Compound 67] (HELM PEPTIDE1{[NC1(C(=O)[*:2])CCc2ccccc2C1].L.D.V}$$$$V2.0) ?
> 10 µM

---
Dear colleague, I am looking for the recorded IC50 of the following molecule: COC(=O)C[C@H](NC(=O)CNC(=O)c1ccccc1)C(=O)N[C@H](C(=O)OC)C(C)C [Compound 173] (Bz-Gly-Asp(OMe)-Val-OMe)
> 10 µM
